experimental.target: T1, RTEL1 HHD2 (Homo sapiens, UniProt Q9NZ71-6 1056-1140)
T1 sequence: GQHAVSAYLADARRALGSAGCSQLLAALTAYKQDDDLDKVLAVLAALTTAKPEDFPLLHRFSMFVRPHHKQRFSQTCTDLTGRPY
method: NMR titration (TITAN); pH 7.4; NMR: 20 mM Tris-HCl pH 7.4, 50 mM NaCl, 2 mM DTT, 0.02% NaN3, 10% D2O, 25 C (one ssDNA-22 titration at pH 6.5); ITC: 10 mM potassium phosphate pH 6.5, 50 mM KCl, 0.02% NaN3, 25 C
setup.conditions: protein: recombinant; tags: N-terminal 6xHis; single strand
result.type: Kd (µM)
Numbers only, in µM.

# Kd of AGGATTAGGATTAGGATTAGGA (ssDNA) [ssDNA-22] = 14.6
